ASSAY NOTES: protein stability index of a GFP-peptide fusion (yeast GPS) (PSI 1-4); higher = more stable; sorted into four equal gates, so the index is relative within each strain
EXPERIMENTAL CONTEXT: doa10∆
REPORTED ENDPOINT: protein stability index
Lab note: record the figure alone, no unit after it.

LLPNSKNVENTKNLSIL [DSN1] ... 2.59
RVSLQDIKDFADKVYTK [QCR2] ... 2.85

Which protein stability index is reported for this sequence? NEKKTETNAKPFSFSSA [YLR335W/NUP2]
3.32

What about this sequence? NESSTFLKLVLSESPVD [SIN4]
2.1

What about this sequence? ADEQKRSTDVWYEASTW [ARP7]
2.36

What about this sequence? SPTENGVFDPASYSKYL [RPL22B]
3.18

What about this sequence? NSPSKGNSERPSAVAGF [YIL149C/MLP2]
3.2

---

ASSAY NOTES: protein stability index of a GFP-peptide fusion (yeast GPS) (PSI 1-4); higher = more stable; sorted into four equal gates, so the index is relative within each strain
EXPERIMENTAL CONTEXT: ubr1∆
Given measured protein stability index, output TRUE if it is greater than or equal to 3 and FALSE if not.

QFELLSRRWRQRKNIQS [BRR2] ... FALSE
ILRNGIDYLQRNDKTLE [POP1] ... FALSE
KFDIIIVDTSGRHHQEE [SRP54] ... TRUE

Would you say RHGFNRSNTGALMRCSF [RPO21] shows protein stability index at minimum 3?
FALSE

What about this sequence? NEKRYATASAIAATAVA [RPL4A]
FALSE

What about this sequence? PLKIHRTPYLTSLKKIK [SWI1]
FALSE

What about this sequence? TYVLNTWTNSKIFIKDP [YML103C/NUP188]
FALSE

What about this sequence? MRELGLIQSTEFPSITS [YOR098C/NUP1]
TRUE

---

ASSAY NOTES: protein stability index of a GFP-peptide fusion (yeast GPS) (PSI 1-4); higher = more stable; sorted into four equal gates, so the index is relative within each strain
EXPERIMENTAL CONTEXT: doa10∆
REPORTED ENDPOINT: protein stability index
Lab note: record the figure alone, no unit after it.

Recorded results for 5 sequences are shown here.
PVSTASYRLLPQINILQ [RPC40] ... 1.61
DRGLSIKLNGSTLLCTD [SNU114] ... 3.17
DIRKFLDGIYVSHKGFI [RPL9A] ... 1.39
PKFAIQDNHHITKVTEN [YMR129W/POM152] ... 2.83
KTLKRMIKESSTANPNI [POP1] ... 2.54

Which protein stability index is reported for this sequence? KPVKVALIFIFFAYFIG [YJL039C/NUP192]
1.66

What about this sequence? WAADSVSSRVRGYTCQF [FAS1]
2.56

---

ASSAY NOTES: protein stability index of a GFP-peptide fusion (yeast GPS) (PSI 1-4); higher = more stable; sorted into four equal gates, so the index is relative within each strain
EXPERIMENTAL CONTEXT: pdr5∆
Given measured protein stability index, output class 1 if it is greater than or equal to 3 and class 0 if not.

HVLSRLSYISALGMMTR [RET1] ... class 0

Would you say DQCKKQRRCLHCGALNG [RPO31] shows protein stability index at minimum 3?
class 0

What about this sequence? LAKSKASLTAARTAANS [RPN6]
class 0

What about this sequence? VLVSMGSSNKAVVQTVK [YJL039C/NUP192]
class 0

What about this sequence? PTHIWNAKRSHMMKRWG [POP1]
class 0

What about this sequence? DHYESNQLVAKLLLLRI [SRB8]
class 0

What about this sequence? KKTVAGGAYTVSTAAAA [RPL43A]
class 0

What about this sequence? ETQVEVEKNEIGKMYDE [NNF1]
class 1

What about this sequence? TRYNRDYMLSMANIPER [SNU114]
class 0

What about this sequence? LKEERAIEPETFTQLVS [PUP3]
class 0

What about this sequence? VANYSAMANAPGNNIPY [GAL11]
class 1

What about this sequence? RSYDLTRHQNTIHAKRK [RPN4]
class 0

What about this sequence? ACDPSEIEPILMEIHNI [RGR1]
class 0
